- TARGET ENTITY: 15-hydroxyprostaglandin dehydrogenase [NAD(+)] (Homo sapiens, UniProt P15428)
- Sequence (P15428 whole entry): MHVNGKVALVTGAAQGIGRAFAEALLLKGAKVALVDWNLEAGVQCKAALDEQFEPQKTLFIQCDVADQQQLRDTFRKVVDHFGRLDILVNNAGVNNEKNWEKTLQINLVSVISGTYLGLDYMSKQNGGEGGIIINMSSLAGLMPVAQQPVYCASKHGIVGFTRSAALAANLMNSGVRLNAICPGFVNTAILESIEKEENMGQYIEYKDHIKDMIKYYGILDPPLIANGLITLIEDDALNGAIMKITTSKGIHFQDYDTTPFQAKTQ
QUANTITY MEASURED: IC50 (nM)

The cases that follow already have their IC50 on record.
{"COMPOUND": "O=C1NC(=O)/C(=C\\c2ccc(OCc3ccc(-c4ccccc4)cc3)cc2)S1", "QUANTITY MEASURED": "IC50", "MEASURED": 814}
{"COMPOUND": "O=C1NC(=O)/C(=C/c2ccc(OCCC3CCCC3)cc2)S1", "QUANTITY MEASURED": "IC50", "MEASURED": 116}
{"COMPOUND": "CC1CCC(COc2ccc(/C=C3\\SC(O)=NC3=O)cc2)CC1 (stereo unspecified)", "QUANTITY MEASURED": "IC50", "MEASURED": 52}
{"COMPOUND": "Cc1ccc(COc2ccc(/C=C3\\SC(O)=NC3=O)cc2)cc1", "QUANTITY MEASURED": "IC50", "MEASURED": 232}

a = O=C1N=C(O)S/C1=C\c1ccc(OCCNC2CCCCC2)cc1
b = O=C1N=C(O)S/C1=C\c1ccc(OCCN2CCCCC2)cc1
[in] For the pair a and b , which member has the lower IC50 number? Refer to your chosen item by its label in the answer.
[out] b
(b: 1440 nM, a: 3720 nM)
